Origin of measurements: patent US9187471B2

Biological target: human recombinant serotonin (5-Hydroxytryptamine) 5-HT6 receptor (Homo sapiens, UniProt P50406)
Construct: expressed in transfected cells; host or cells: HeLa
Sequence (P50406 whole entry): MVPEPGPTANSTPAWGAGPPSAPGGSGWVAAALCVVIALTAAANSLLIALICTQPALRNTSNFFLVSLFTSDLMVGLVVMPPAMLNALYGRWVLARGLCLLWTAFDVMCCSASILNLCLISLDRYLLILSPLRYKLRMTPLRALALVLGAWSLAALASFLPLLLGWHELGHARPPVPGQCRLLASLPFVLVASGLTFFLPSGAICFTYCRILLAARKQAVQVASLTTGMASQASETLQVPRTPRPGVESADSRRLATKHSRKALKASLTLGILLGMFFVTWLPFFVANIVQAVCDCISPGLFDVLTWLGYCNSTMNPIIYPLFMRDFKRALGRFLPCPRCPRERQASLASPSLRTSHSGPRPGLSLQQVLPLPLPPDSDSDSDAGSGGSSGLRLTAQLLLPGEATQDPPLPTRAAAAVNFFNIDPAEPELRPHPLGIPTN
Assay: Serotonin 5-HT6 radioligand binding ([3H]LSD)
Details: compound at 0.1 μM; read-out: Inhibition of ligand binding, Serotonin 5-HT6 (percent inhibition of specific binding)
Source text: Receptor proteins were filtered and washed, the filters were then counted to determine [3H]LSD specifically bound.
Parameter: inhibition at 0.1 µM. Scope: all listed entries.
measured_parameter: inhibition at 0.1 µM

[[record]]
structure_string = "Cc1ccc2c(c1)c1c(n2-c2ccc(-c3c(C)noc3C)cn2)CCN(C)C1"
reported_result = "2%"

[[record]]
structure_string = "Cc1ccc2c(c1)c1c(n2-c2ccccc2-c2ccncc2)CCN(C)C1"
reported_result = "26%"

[[record]]
structure_string = "Cc1csc(-c2cscc2-n2c3c(c4cc(C)ccc42)CN(C)CC3)c1"
reported_result = "36%"

[[record]]
structure_string = "Cc1ccc2c(c1)c1c(n2-c2ccccc2-c2cncc3ccccc23)CCN(C)C1"
reported_result = "13%"

[[record]]
structure_string = "Cc1ccc2c(c1)c1c(n2-c2ccccc2-c2ccc(C)s2)CCN(C)C1"
reported_result = "44%"

[[record]]
structure_string = "Cc1ccc2c(c1)c1c(n2-c2ccccc2-c2c(C)noc2C)CCN(C)C1"
reported_result = "14%"

[[record]]
structure_string = "Cc1csc(-c2cccc(-n3c4c(c5cc(C)ccc53)CN(C)CC4)c2)c1"
reported_result = "5%"

[[record]]
structure_string = "CNC(=O)c1cc(-n2c3c(c4cc(C)ccc42)CN(C)CC3)cs1"
reported_result = "17%"

